System: RAW264.7
EXPERIMENT_SUMMARY: Inhibition of LPS-induced nitric oxide production in mouse RAW264.7 cells at 20 uM after 20 hrs by Griess method
Assay type: functional
REPORTED_CONDITIONS: RAW264.7, 20 h
Param threshold (10%) applies to inhibition at 20 µM; output Criterion met when value >= threshold, Criterion not met when value < threshold.

- SMILES_TEXT: "Oc1cccc2scnc12"
  CLASS_ASSIGNMENT: "Criterion not met"
- SMILES_TEXT: "c1ccc(CNc2ccccc2COc2cccc3scnc23)cc1"
  CLASS_ASSIGNMENT: "Criterion met"
- SMILES_TEXT: "Cc1ccc(COc2cccc3scnc23)cc1"
  CLASS_ASSIGNMENT: "Criterion met"
- SMILES_TEXT: "c1ccc(COc2cccc3scnc23)cc1"
  CLASS_ASSIGNMENT: "Criterion met"
- SMILES_TEXT: "COc1cccc2scnc12"
  CLASS_ASSIGNMENT: "Criterion met"
- SMILES_TEXT: "O=C(Cc1ccc2c(c1)OCO2)Nc1ccccc1COc1cccc2scnc12"
  CLASS_ASSIGNMENT: "Criterion met"
- SMILES_TEXT: "Nc1nc2c(O)cccc2s1"
  CLASS_ASSIGNMENT: "Criterion met"
- SMILES_TEXT: "CC(=O)Nc1ccccc1COc1cccc2scnc12"
  CLASS_ASSIGNMENT: "Criterion not met"
- SMILES_TEXT: "O=C(Cc1ccc2c(c1)OCO2)N(Cc1ccccc1)c1ccccc1COc1cccc2scnc12"
  CLASS_ASSIGNMENT: "Criterion met"
- SMILES_TEXT: "O=C(Cc1ccc2c(c1)OCO2)Nc1cccc(COc2cccc3scnc23)c1"
  CLASS_ASSIGNMENT: "Criterion met"
- SMILES_TEXT: "COc1ccc2[nH]cc(CC(=O)Nc3cccc(COc4cccc5scnc45)c3)c2c1"
  CLASS_ASSIGNMENT: "Criterion met"
- SMILES_TEXT: "Cc1ccc(COc2cccc3sc(N)nc23)cc1"
  CLASS_ASSIGNMENT: "Criterion met"
- SMILES_TEXT: "CS(=O)(=O)Nc1ccccc1COc1cccc2scnc12"
  CLASS_ASSIGNMENT: "Criterion not met"
- SMILES_TEXT: "COc1ccc(/C=C/C(=O)Nc2ccccc2COc2cccc3scnc23)cc1OC"
  CLASS_ASSIGNMENT: "Criterion met"
- SMILES_TEXT: "COc1ccc2[nH]cc(CC(=O)Nc3ccccc3COc3cccc4scnc34)c2c1"
  CLASS_ASSIGNMENT: "Criterion met"
- SMILES_TEXT: "COc1ccc(CCC(=O)Nc2ccccc2COc2cccc3scnc23)cc1OC"
  CLASS_ASSIGNMENT: "Criterion met"
- SMILES_TEXT: "Nc1ccccc1COc1cccc2scnc12"
  CLASS_ASSIGNMENT: "Criterion met"
- SMILES_TEXT: "Nc1cccc(COc2cccc3scnc23)c1"
  CLASS_ASSIGNMENT: "Criterion met"
- SMILES_TEXT: "COc1ccc(/C=C/C(=O)N(Cc2ccccc2)c2ccccc2COc2cccc3scnc23)cc1OC"
  CLASS_ASSIGNMENT: "Criterion met"
